- System: MRCKA
- condition_summary: concentration: 1 μM, replicates: in singlicate; n = 1;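 also: KINOMEscan kinase panel screen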
reported_property: %Inh (%)
Write the answer as a number in %, unit excluded.

See these solved cases before continuing.
compound	experimental_target	%Inh / %
Cc1cccc(-c2nc(C)cc(Nc3ccncc3)n2)n1 [GSK257997]	MRCKA	34
O=C(Nc1n[nH]c2nc(-c3nccs3)c(Br)cc12)C1CC1 [SB-742251]	MRCKA	3
COc1cc(Nc2nccc(N3CCC(NC(=O)Nc4cc(C)ccc4C)C3)n2)cc(OC)c1OC (stereo not drawn) [GSK1379762]	MRCKA	0
COc1ccccc1-c1ccc2c(NC(=O)C3CC3)n[nH]c2n1 [SB-711239]	MRCKA	0
Cc1cc(-c2ccc3c(c2)CC[C@@H](N[C@@H](C)c2ccccc2)C3)cnc1N.Cl [GW412617]	MRCKA	0
COc1ccc(Nc2nccc(NCCNC(=O)Nc3ccccc3F)n2)cc1 [GSK1379901]	MRCKA	23

Query string: May I ask what %Inh has been recorded for Cc1cccc(-c2nc(Nc3ccncc3)c3ccccc3n2)n1 [GW855857] ?
Result string: 47

Query string: Also Cc1ccccc1-n1cnc2c(N)ncnc21 [SKF-97510] ?
Result string: 0

Query string: Same for Cc1nnc(-c2ccc3occ(-c4ccc(S(C)=O)cc4)c3c2)[nH]1 (stereo not drawn)
Result string: 1

----------
- System: CASK
- condition_summary: concentration: 1 μM, replicates: in singlicate; n = 1
If the reported %Inh equals or exceeds 2%, assign criterion met. If not, assign criterion not met.

Completed entries (count: 3):
compound	experimental_target	cat
Cc1cccc(-c2nc(Nc3ccc4[nH]ncc4c3)c3ccccc3n2)n1 [GW857175]	CASK	criterion met
Cc1ccccc1-n1cnc2c(N)ncnc21 [SKF-97510]	CASK	criterion not met
CC1=C(C(=O)Nc2cc3cn[nH]c3cc2F)C(c2ccc(C(F)(F)F)cc2)CC(=O)N1 (centres unmarked) [GSK429286]	CASK	criterion met

Query string: Hi, just wondering whether O=c1cc(N2CCOCC2)nc2n(Cc3cccc(Cl)c3Cl)ccn12 [GSK2286295] shows %Inh of 2% or higher.
Result string: criterion met

----------
- Test system: AKT2
- condition_summary: concentration: 1 μM, replicates: in singlicate; n = 1
Binary call on %Inh: Y from 20% upward, N beneath that.

Observe how each entry below is paired with its result.
structure	cat
CS(=O)(=O)c1ccc(-c2nc3n(c2-c2ccncc2)CCC3)cc1	Y
COc1ccccc1-c1ccc2c(NC(=O)C3CC3)n[nH]c2n1	N
O=C(O)COc1ncnc2cc(-c3ccc4[nH]ncc4c3)sc12	Y

Query string: Check this molecule for %Inh at or above 20%: Clc1cc(Cl)cc(Nc2ccnc(Nc3cc(Cl)cc(Cl)c3)n2)c1
Result string: N

Query string: Another molecule to look at: O=C(Nc1n[nH]c2nc(-c3nccs3)c(Br)cc12)C1CC1
Result string: N

Query string: Thanks! And Cc1cccc(-c2nc(C)cc(Nc3ccncc3)n2)n1 ?
Result string: N

Query string: Can you check CCn1c(-c2cccnc2O)nc2cnccc21 next?
Result string: N

Query string: // next record CCn1c(-c2ccccn2)nc2cnccc21
Result string: N

----------
- Tested on: PCTK2
- Construct: gene CDK17
- condition_summary: concentration: 1 μM, replicates: in singlicate; n = 1
reported_property: %Inh (%)
Value expressed in %; do not type the unit.

structure	reported_property	output_unit	recorded_measurement
COC(=O)c1c(-c2ccccc2)c2cc(OC)ccc2c(=O)n1Cc1ccccc1	%Inh	%	4
Fc1cc(Cl)ccc1Nc1ccnc2cc(I)ccc12	%Inh	%	0
COc1ccc2nc(-c3cccc(C)n3)nc(Nc3ccncc3)c2c1	%Inh	%	0
O=C1NC(=O)C(N2CCc3ccccc32)=C1c1ccccc1Cl	%Inh	%	1

Query string: Please look up its %Inh: O=C(Nc1ccccc1)Nc1cccc(Oc2ccc3nccn3n2)c1
Result string: 5

Query string: Now give it for O=C(Nc1n[nH]c2nc(-c3nccs3)c(Br)cc12)C1CCCC1 too.
Result string: 47

Query string: Also Cl.NC(=O)c1cccc(Nc2nccc(Nc3ccc(Oc4cccc(Cl)c4)c(Cl)c3)n2)c1 ?
Result string: 7

Query string: Param item: Cl.Oc1ccc(-c2nc(-c3ccccc3)[nH]c2-c2ccncc2)cc1
Result string: 0

Query string: Try COc1cccc(-c2cc(-c3c[nH]nc3-c3ccccn3)ccn2)c1 next.
Result string: 0

The measurements presented in this section are drawn from paper PMC5540273.
